# Protocol: Cytotoxicity against human HL-7702 cells measured after 72 hrs by MTT assay
# Format: cell-based
# Assay setup: HL-7702 (L02) cells
# note: boundary value 10 µg/mL maps to condition not met; CC50 at 72 h below it maps to condition met

Q: In the record for COc1c(C(C)C)ccc2c1[C@H](O)C=C1C3=C(CCC12C)C(=O)OC3 (single isomer, unassigned) , is CC50 at 72 h less than 10 µg/mL?
A: condition not met

Q: A record lists COC(=O)[C@]1(C)CCC[C@]2(C)c3ccc(C(C)C)c(NC(=O)Cn4cc(-c5cncnc5)nn4)c3CC[C@@H]12 . Is its CC50 at 72 h below 10 µg/mL?
A: condition not met

Q: Please indicate whether the reported CC50 at 72 h of C=C1C(=O)CC[C@]2(C)c3cccc(OC)c3CC[C@@H]12 is strictly below 10 µg/mL.
A: condition met

Q: hey, is CC50 at 72 h for CCOCO[C@]12CCC[C@]3(CO1)c1ccc(C(C)C)c(OC)c1CC[C@@H]23 lower than 10 µg/mL or not?
A: condition met

Q: For COC(=O)[C@]1(C)CCC[C@]2(C)c3ccc(C(C)C)c(NC(=O)Cn4cc(-c5cccc(NC(C)=O)c5)nn4)c3CC[C@@H]12 , is the recorded CC50 at 72 h below the cut-off of 10 µg/mL?
A: condition met

New cases:
Q: Please check: CC50 at 72 h for COC(=O)[C@]1(C)CCC[C@]2(C)c3ccc(C(C)C)c(NC(=O)Cn4cc(-c5cccnc5)nn4)c3CC[C@@H]12 , strictly under 10 µg/mL or not?
A: condition not met

Q: Decide: CC50 at 72 h of CCOCOC[C@]12CCC(=C(SC)SC)C(=O)[C@@H]1CCc1c2ccc(C(C)C)c1OC strictly below 10 µg/mL?
A: condition not met

Q: Given the entry COc1cccc2c1CC[C@H]1[C@H]3COC(=O)[C@@]3(O)C(=O)C[C@]21C , would its reported CC50 at 72 h be below 10 µg/mL?
A: condition not met

====

# Tested on: Staphylococcus aureus
# Protocol: Antibacterial activity against Staphylococcus aureus measured after 24 hrs
# Assay type: functional
Measurement label: MIC (µg/mL)
# value in µg/mL; strip the unit string

Q: If you can, please state the reported MIC value of CCCCCOc1ccc(-c2cn(CC(=O)Nc3c(C(C)C)ccc4c3CC[C@H]3[C@](C)(C(=O)OC)CCC[C@]43C)nn2)cc1 .
A: 100

Q: Item COC(=O)[C@]1(C)CCC[C@]2(C)c3ccc(C(C)C)c(NC(=O)Cn4cc(-c5ccccn5)nn4)c3CC[C@@H]12 has what recorded MIC?
A: 25

---
Q: I would be grateful if you could share the reported MIC for COC(=O)[C@]1(C)CCC[C@]2(C)c3ccc(C(C)C)c(NC(=O)Cn4cc(C(O)c5ccccc5)nn4)c3CC[C@@H]12 (some centres not stated) .
A: 25

Q: Need MIC of COC(=O)[C@]1(C)CCC[C@]2(C)c3ccc(C(C)C)c(NC(=O)Cn4cc(-c5cccc(Br)c5)nn4)c3CC[C@@H]12 , thanks.
A: 25

Q: Item COC(=O)[C@]1(C)CCC[C@]2(C)c3ccc(C(C)C)c(NC(=O)Cn4cc(-c5ccc(OCc6ccccc6)cc5)nn4)c3CC[C@@H]12 has what recorded MIC?
A: 50

Q: Recorded MIC of C=C1[C@H](O)CC[C@]2(C)c3ccc(C(C)C)c(OC)c3CC[C@@H]12 , please.
A: 100

Q: Field request: MIC | item: CC(C)C1=CC2=CC[C@@H]3[C@](C)(CCC[C@@]3(C)C(=O)O)[C@H]2CC1
A: 25
